System: NCI-H522 lung
Test: NCI-60 one-dose screen, 48 h (100 = growth as untreated, 0 = no growth, -100 = all killed)
Settings: 10 µM unless noted
About 83,000 compounds went through this panel and 20% of them were active in at least one assay; those are over-represented in the sample as a whole.

Compound: O=Nc1c(O)ccc2ccccc12.O=Nc1c(O)ccc2ccccc12.O=Nc1c([O-])ccc2ccccc12.[Fe+3]
Units text: %
growth: 103

Compound: CC(C)CCNCC(O)Cn1c2ccccc2c2ccccc21 (configuration not stated)
Units text: %
growth: 20.3

Compound: Nc1nc(Nc2cccc(F)c2)nc2ccccc12
Units text: %
growth: 51.5

Compound: COc1ccc(C2C3=C(COC3=O)N(CCO)c3cc4c(cc32)CCC4)cc1 (configuration not stated)
Units text: %
growth: 37.8

Compound: O=C(c1nc2ccccc2[nH]1)C1C(c2cccc([N+](=O)[O-])c2)C2CC3CCCCC3N2[C@@]12C(=O)Nc1cc(Cl)ccc12 (some centres not stated)
Units text: %
growth: 52.4

Compound: c1ccc(CNc2nc(Nc3ccccc3)nc3ccccc23)cc1
Units text: %
growth: 40.7

Compound: COc1ccc(C2=NN(/C=C3\SC(=O)NC3=Nc3ccc(F)cc3)C(c3ccc(F)cc3)C2)cc1 (configuration not stated)
Units text: %
growth: 91.2

Compound: O=C(Nc1ccc(Cl)cc1)c1cc2ccccc2cc1OP(=O)(O)O
Units text: %
growth: 3.47

Compound: COc1ccc(Cn2cc(Cn3c(=O)c(-c4nc5ccccc5[nH]4)cc4ccccc43)nn2)c(OC)c1OC
Units text: %
growth: -1.1

Compound: COC(=O)c1c2c(c(C)[n+]([O-])c1C)C(=O)C=C(NCc1ccc(F)c(F)c1)C2=O
Units text: %
growth: -53.1

Compound: CC(C)c1ccc(S(=O)(=O)NC(=O)NC2CCCC2)cc1
Units text: %
growth: 97.2

Compound: CCOC(=O)C1(C(=O)OCC)N=C(c2ccccc2)C=C1c1ccccc1
Units text: %
growth: 64.4

Compound: Cc1ccc2nc(NC(=O)CSC(=S)N3CCN(c4ccccc4)CC3)sc2c1
Units text: %
growth: -81.8

Compound: O=C(Nc1ccc(F)c(Cl)c1)Nc1ccc(Cl)c(Cl)c1
Units text: %
growth: 66.4

Compound: O=Cc1cc2ccccc2nc1Nc1nccs1
Units text: %
growth: 83.1

Compound: C1CCN(c2nc(N3CCCCC3)nc(N3CCOCC3)n2)CC1
Units text: %
growth: 78

Compound: CC1=NCC2NC(=O)NC(C)=C12 (configuration not stated)
Units text: %
growth: 96.5

Compound: CCCCC1CCc2cccc3c(SCC(=O)N(C)c4ccc(Cl)cc4)cc[n+]1c23 (configuration not stated)
Units text: %
growth: 97.5

Compound: O=c1oc2ccc(Cl)cc2c(=O)n1-c1ccc(Cl)cc1F
Units text: %
growth: -20.9

Compound: O=C(Cn1cc(COc2ncnc3c2cnn3-c2ccccc2)nn1)Nc1cccc2ccccc12
Units text: %
growth: 81.1

Compound: O=C(O)c1cn(C2CC2)c2cc(N3CCN(C(=O)C[n+]4ccccc4)CC3)c(F)cc2c1=O
Units text: %
growth: 93.4

Compound: CN(C)CCCNCc1ccc(-c2ccc(F)c(Cl)c2)o1
Units text: %
growth: 19.5

====

Reported growth values for a set of compounds
Test system: EKVX NSCLC
Experiment: NCI-60 one-dose screen, 48 h (100 = growth as untreated, 0 = no growth, -100 = all killed)
Settings: 10 µM unless noted
Compounds without any hit were thinned out: in the full panel of roughly 83,000, 20% have a hit.
Property label: growth (%)

Compound: O=C1/C(=C/c2ccc(O)cc2)COc2ccc(O)cc21
Experimental result: 106
//
Compound: COc1ccc(OC)c(/C=C/C(=O)c2c(C)nc3ccccc3c2/C=C/c2ccccc2)c1
Experimental result: 79.4
//
Compound: COc1ccc(C2=NN(/C=C3\SC(=O)NC3=Nc3ccc(F)cc3)C(c3ccc(F)cc3)C2)cc1 (stereo not drawn)
Experimental result: 82.2
